# tested_target: JAK1 (Homo sapiens (Human), UniProt P23458)
# Sequence (P23458 875-1153): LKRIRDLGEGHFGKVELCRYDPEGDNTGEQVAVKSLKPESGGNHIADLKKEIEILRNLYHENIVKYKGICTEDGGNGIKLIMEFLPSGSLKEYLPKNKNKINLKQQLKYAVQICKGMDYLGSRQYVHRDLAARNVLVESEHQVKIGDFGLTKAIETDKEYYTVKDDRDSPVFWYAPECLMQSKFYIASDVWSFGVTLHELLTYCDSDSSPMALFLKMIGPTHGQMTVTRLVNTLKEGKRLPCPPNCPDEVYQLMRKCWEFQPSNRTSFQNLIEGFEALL
# procedure_details: Jak Biochemical HTRF Assay, JAK1
# cond: HTRF biochemical assay, GST-tagged catalytic domain; top concentration tested […]; read-out: JAK1 IC50
pIC50: −log10 of the molar value.
assay_readout: pIC50

(I) CC(C)(C)OC(=O)N1CCC(C(C#N)C2CC2)(n2cc(C(N)=O)c(Nc3ccc(F)cc3)n2)CC1 (centres unmarked)
(II) N#CCC1(n2cc(C(N)=O)c(Nc3ccnc(F)c3)n2)CCC(Nc2ccccc2Cl)CC1 (centres unmarked) [Example 40-25]
Compare I and II and name the one whose reported pIC50 is smaller. Please identify the chosen entry by its label.
I

(a) CCOc1ccc(N2CCC(CC#N)(n3cc(C(N)=O)c(Nc4ccc(F)cc4)n3)CC2)cn1
(b) N#CCC1(n2cc(C(N)=O)c(Nc3ccc(F)cc3)n2)CCN(c2ccc(C(O)C(F)(F)F)cc2)CC1 (centres unmarked)
Compare a and b and name the one whose reported pIC50 is smaller. Please identify the chosen entry by its label.
a
(a: 8.52, b: 9.00)

###

# tested_target: JAK1 (Homo sapiens (Human))
# procedure_details: Jak Biochemical HTRF Assay, JAK1
# cond: HTRF biochemical assay, GST-tagged catalytic domain; top concentration tested […]; read-out: JAK1 IC50
assay_readout: IC50 (nM)

Per the records, this compound ( `N#CCC1(n2cc(C(N)=O)c(Nc3ccccc3)n2)CCN(Cc2ccc(C(F)(F)F)cc2)CC1` ) has IC50 equal to 35

Per the records, this compound ( `COC(=O)c1cccc(N2CCC(CC#N)(n3cc(C(N)=O)c(Nc4ccc(F)cc4)n3)CC2)n1` ) has IC50 equal to 19

(I) N#CCC1(n2cc(C(N)=O)c(Nc3ccc(S(=O)(=O)C(F)F)cc3)n2)CCC(N2CCC(O)CC2)CC1 (stereo not shown) [Example 40-67]
(II) COC(=O)Cc1ccc(Nc2nn(C3(CC#N)CCN(C(=O)OC(C)(C)C)CC3)cc2C(N)=O)cc1
(III) N#CCC1(n2cc(C(N)=O)c(Nc3ccc(F)cc3)n2)CCC(NCc2ccc(C#N)cc2)CC1 (stereo not shown)
(IV) N#CCC1(n2cc(C(N)=O)c(Nc3ccccc3)n2)CCN(S(=O)(=O)Cc2ccccc2)CC1
(V) CC(C)(C)OC(=O)N1CCC(CC#N)(n2cc(C(N)=O)c(Nc3ccc(S(=O)(=O)C(F)F)cc3)n2)CC1
Arrange the 5 compounds from largest to smallest IC50. Dear reader, please state the labels in the requested order.
I, III, IV, II, V

###

# tested_target: JAK1 (Homo sapiens (Human))
# procedure_details: Jak Biochemical HTRF Assay, JAK1
# cond: HTRF biochemical assay, GST-tagged catalytic domain; top concentration tested […]; read-out: JAK1 IC50
pIC50: −log10 of the molar value.
assay_readout: pIC50

Per the records, this molecule ( `N#CCC1(n2cc(C(N)=O)c(Nc3ccccc3)n2)CCN(C(=O)c2ccc(Cl)cc2)CC1` ) has pIC50 equal to 7.96

Per the records, this molecule ( `N#CCC1(n2cc(C(N)=O)c(Nc3ccccc3)n2)CN(S(=O)(=O)Cc2ccccc2)C1` ) has pIC50 equal to 6.98

(P) CC(O)c1ccc(Nc2nn(C3(CC#N)CCN(C(=O)OC(C)(C)C)CC3)cc2C(N)=O)cn1 (stereo not shown)
(Q) Cc1ccc(CN2CCC(CC#N)(n3cc(C(N)=O)c(Nc4ccccc4)n3)CC2)cc1C
Lab note: check whether P or Q shows the higher recorded pIC50. Please identify the chosen entry by its label.
P
(P: 9.30, Q: 7.41)

###

# tested_target: JAK2 (Homo sapiens (Human), UniProt O60674)
# Sequence (O60674 849-1124): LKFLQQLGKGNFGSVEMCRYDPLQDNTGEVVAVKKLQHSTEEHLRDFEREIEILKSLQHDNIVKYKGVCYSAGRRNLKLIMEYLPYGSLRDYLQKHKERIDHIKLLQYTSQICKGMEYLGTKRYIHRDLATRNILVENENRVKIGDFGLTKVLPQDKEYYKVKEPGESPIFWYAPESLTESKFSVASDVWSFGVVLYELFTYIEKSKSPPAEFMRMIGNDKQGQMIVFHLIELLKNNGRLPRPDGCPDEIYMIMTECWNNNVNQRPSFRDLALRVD
# procedure_details: Jak Biochemical HTRF Assay, JAK2
# cond: HTRF biochemical assay, GST-tagged catalytic domain; top concentration tested […]
pIC50: −log10 of the molar value.
assay_readout: pIC50

pIC50 value, target or system JAK2 (Homo sapiens (Human), UniProt O60674), for N#CCC1(n2cc(C(N)=O)c(Nc3ccnc(F)c3)n2)CCC(NCc2ccc(Cl)cc2)CC1 (stereo not shown) [Example 41-15] : 8.70

pIC50 value, target or system JAK2 (Homo sapiens (Human), UniProt O60674), for N#CCC1(n2cc(C(N)=O)c(Nc3ccc(F)cc3)n2)CCC(NCCF)CC1 (stereo not shown) [Example 40-79] : 6.88

pIC50 value, target or system JAK2 (Homo sapiens (Human), UniProt O60674), for N#CCC1(n2cc(C(N)=O)c(Nc3ccc(F)cc3)n2)CCN(CC2CC2)CC1 [Example 24-2] : 6.04

pIC50 value, target or system JAK2 (Homo sapiens (Human), UniProt O60674), for N#CCC1(n2cc(C(N)=O)c(Nc3ccnc(F)c3)n2)CCN(Cc2cccc(F)n2)CC1 [Example 22-32] : 7.08

pIC50 value, target or system JAK2 (Homo sapiens (Human), UniProt O60674), for N#CCC1(n2cc(C(N)=O)c(Nc3ccccc3)n2)CCN(C(=O)C2CCCCC2)CC1 [Example 34-13] : 7.36

(a) N#CCC1(n2cc(C(N)=O)c(Nc3ccc(F)cc3)n2)CCC(Nc2ccccc2)CC1 (stereo not shown) [Example 40-96]
(b) N#CCC1(n2cc(C(N)=O)c(Nc3ccc(F)cc3)n2)CCN(Cc2ccc3[nH]ccc3c2)CC1 [Example 22-55]
(c) N#CC[C@]1(n2cc(C(N)=O)c(Nc3ccc(S(=O)(=O)C(F)F)cc3)n2)CC[C@H](N)CC1 [Example 41-3]
(d) CC(=O)Nc1ccc(CN2CCC(CC#N)(n3cc(C(N)=O)c(Nc4ccccc4)n3)CC2)cc1 [Example 21-12]
(e) COc1cccnc1N1CCC(CC#N)(n2cc(C(N)=O)c(Nc3ccc(F)cc3)n2)CC1 [Example 3-23]
Put the compounds in ascending order of pIC50. Dear reader, please state the labels in the requested order.
e, d, b, c, a

(1) N#CCC1(n2cc(C(N)=O)c(Nc3ccccc3)n2)CCN(S(=O)(=O)C2CC2)CC1 [Example 37-15]
(2) CC(C)(C)OC(=O)N1CCC(CC#N)(n2cc(C(N)=O)c(Nc3ccc(C(=O)N4CCS(=O)(=O)CC4)cc3)n2)CC1 [Example 2-6]
Lab note: check whether 1 or 2 shows the higher recorded pIC50. Please identify the chosen entry by its label.
2

###

# tested_target: JAK2 (Homo sapiens (Human), UniProt O60674)
# procedure_details: Jak Biochemical HTRF Assay, JAK2
# cond: HTRF biochemical assay, GST-tagged catalytic domain; top concentration tested […]
pIC50: −log10 of the molar value.
assay_readout: pIC50

For orientation, consider the following solved cases.
Per the records, this compound ( `CC(C)(C)OC(=O)N1CCC(CC#N)(n2cc(C(N)=O)c(Nc3ccc(F)cn3)n2)CC1` ) has pIC50 equal to 6.74

Per the records, this compound ( `CCS(=O)(=O)N1CC(CC#N)(n2cc(C(N)=O)c(Nc3ccccc3)n2)C1` ) has pIC50 equal to 6.39

Per the records, this compound ( `N#CCC1(n2cc(C(N)=O)c(Nc3ccc(F)cc3)n2)CCN(Cc2cccc(F)n2)CC1` ) has pIC50 equal to 7.02

Per the records, this compound ( `N#CCC1(n2cc(C(N)=O)c(Nc3ccccc3)n2)CN(C(=O)Nc2cccc(F)c2)C1` ) has pIC50 equal to 7.17

Per the records, this compound ( `N#CCC1(n2cc(C(N)=O)c(Nc3ccccc3)n2)CN(S(=O)(=O)Cc2ccccc2)C1` ) has pIC50 equal to 6.28

Per the records, this compound ( N#CCC1(n2cc(C(N)=O)c(Nc3ccnc(F)c3)n2)CCC(NCc2ccccc2O)CC1 (stereo not shown) ) has pIC50 equal to 6.33

Per the records, this compound ( N#CCC1(n2cc(C(N)=O)c(Nc3ccnc(F)c3)n2)CCC(NCc2ccc(Cl)cc2)CC1 (stereo not shown) [Example 41-9] ) has pIC50 equal to 6.36

Per the records, this compound ( `CC(C)(C)OC(=O)N1CCC(CC#N)(n2cc(C(N)=O)c(Nc3ccnc(Cl)c3)n2)CC1` ) has pIC50 equal to 8.52

(I) N#CCC1(n2cc(C(N)=O)c(Nc3ccnc(F)c3)n2)CCN(Cc2cnccn2)CC1
(II) CC(C)c1ccc(NC(=O)N2CC(CC#N)(n3cc(C(N)=O)c(Nc4ccccc4)n3)C2)cc1
Lab note: check whether I or II shows the higher recorded pIC50. Please identify the chosen entry by its label.
I
(I: 7.55, II: 7.10)

(P) CC1(C)CC(CN2CCC(CC#N)(n3cc(C(N)=O)c(Nc4ccnc(F)c4)n3)CC2)CCO1 (stereo not shown)
(Q) N#CCC1(n2cc(C(N)=O)c(Nc3ccccc3)n2)CN(C(=O)NC2CCCCC2)C1
Compare P and Q and name the one whose reported pIC50 is smaller. Please identify the chosen entry by its label.
Q

(I) COc1ccc(N2CCC(CC#N)(n3cc(C(N)=O)c(Nc4ccc(F)cc4)n3)CC2)cc1OC
(II) N#CCC1(n2cc(C(N)=O)c(Nc3ccccc3)n2)CCN(C(=O)c2ccc(N3CCOCC3)cc2)CC1
Compare I and II and name the one whose reported pIC50 is smaller. Please identify the chosen entry by its label.
II
(II: 6.15, I: 6.81)

(I) N#CCC1(n2cc(C(N)=O)c(Nc3ccccc3)n2)CCN(C(=O)c2cc3ccccc3[nH]2)CC1
(II) CC(C)COC(=O)N1CC(CC#N)(n2cc(C(N)=O)c(Nc3ccccc3)n2)C1
Compare I and II and name the one whose reported pIC50 is smaller. Please identify the chosen entry by its label.
II
(II: 6.53, I: 6.75)

Cited source: patent US9328099B2
